- targetEntity: human P2X7R (Homo sapiens)
- Sequence (Q99572 whole entry): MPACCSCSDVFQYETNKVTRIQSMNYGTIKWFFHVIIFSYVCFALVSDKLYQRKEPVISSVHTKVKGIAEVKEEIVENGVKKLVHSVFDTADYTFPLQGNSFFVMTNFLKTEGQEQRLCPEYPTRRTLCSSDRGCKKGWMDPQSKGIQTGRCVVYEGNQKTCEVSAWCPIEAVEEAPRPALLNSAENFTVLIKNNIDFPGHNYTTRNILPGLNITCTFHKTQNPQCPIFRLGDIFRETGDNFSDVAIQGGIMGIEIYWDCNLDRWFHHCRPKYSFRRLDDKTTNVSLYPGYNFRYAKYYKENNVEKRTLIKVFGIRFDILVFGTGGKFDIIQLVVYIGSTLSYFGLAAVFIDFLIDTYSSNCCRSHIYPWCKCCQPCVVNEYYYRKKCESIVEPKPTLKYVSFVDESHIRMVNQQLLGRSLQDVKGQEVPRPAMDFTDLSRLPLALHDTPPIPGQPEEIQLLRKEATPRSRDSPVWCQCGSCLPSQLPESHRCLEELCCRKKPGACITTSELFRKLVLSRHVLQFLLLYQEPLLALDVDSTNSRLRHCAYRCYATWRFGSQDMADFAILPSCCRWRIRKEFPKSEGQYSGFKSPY
- testProtocol: Inhibition of Bz-ATP-stimulated calcium influx in Hek293 cells stably transfected with human P2X7R (Fluo-4-AM)
- studyConditions: Hek293 cells expressing human P2X7R, 100 μM Bz-ATP, 15 minute incubation with test compound
pIC50: −log10 of the molar value.
quantityMeasured: pIC50

Prompt: I am curious: what pIC50 value has been reported for O=C(CC1CCCCCC1)Nc1cn(CCO)c2cccc(Cl)c12 ?
Completion: ~8.42

Data provenance: patent US8268861B2
